target entity: Gal(b1-4)GlcNAc(b1-3)Gal(b1-4)GlcNAc(b1-2)Man(a1-3)[Gal(b1-4)GlcNAc(b1-3)Gal(b1-4)GlcNAc(b1-2)Man(a1-6)]Man(b1-4)GlcNAc(b1-4)GlcNAc
assay info: glycan array binding signal (z-score within array); higher = stronger binding
applied conditions: glycan notation: IUPAC condensed, linker removed
Shown is part of a subset that was picked to be rich in the strongest signals.
assay metric: glycan array binding signal (z-score)
The reply should be a number, written without any unit.

Example binders with recorded glycan array binding signal (z-score):
[
  {
    "binder": "SP15308B-bot-339-22-339 (Bacteroides ovatus) (protein) NEWEDEQYEQYVSFKAPIASGSDGVTTIYVRYKDNGKVTYQLPIIVSGSTVNSQDRDIHIAVDKDTLKTLNIERFSLYRPELWYTEMEEDKYEFPETVHIPAGSCVELLNIDFNLQDIDMLEKWVLPLTIVDDGSYAYQSHPRKNYAKALLKVVPFNNYSGSYTASSMKVYTYINGKPDTNARTTDKRTGYVVDNNSIFFYAGLINEDMDKDMRKKYKINVHFKEDGTLDMKQDDPSNEMEFELIGTPTYSSTSVMDATRPYLERRYVQIMFEYDFQDFTYGGSGTEVIPIKYRVAGSMTLLRNINTQIPDEDQQIEW",
    "glycan array binding signal (z-score)": 2.8
  },
  {
    "binder": "NPA (Narcissus pseudonarcissus), C0HM45 (protein) DNILYSGETLSPGEFLNNGRYVFIMQEDCNLVLYDVDKPIWATNTGGLDRRCHLSMQSDGNLVVYSPRNNPIWASNTGGENGNYVCVLQKDRNVVIYGTARWATGTNIH",
    "glycan array binding signal (z-score)": 0.034
  },
  {
    "binder": "CC1G-11630 (Coprinopsis cinerea), A8P462 (protein) MTTEAKIKLKAVVYWELVFDYDNSSNTGEITQSYTVKISQTSTRSTFASEVSTTTIDTLTKNNQEVDVGASYGAISANVSASWEHSEEVNNMLEKTTQTSTEDTYTVETEETRSYTIGPGGMLSLFQKHFSGPGMHVAFDVFTTDLELAKERTEIDIDVDVEAIRFVREIRVVYTDIMSEAPGDHVREINGKNPDINYGFNGKFVWLVPEQTRKTAQALTNVEFVSQAESDDRYWDLAAGAGGSNRYLIPVYDTNNKDKIYELALWRSDSYITHDKVKAAGWSGTTGDINSGRGGTYLNLVWKTRHAY",
    "glycan array binding signal (z-score)": 2.49
  }
]

Asked: Request the reported glycan array binding signal (z-score) associated with CLECb-Precomplexed (Mus musculus), P43025 (protein) MAKNGLVLCILVVSLLLDQTDGYPSRMKARKHSKRRVKAKDDDLKSQVEKLWREVNALKEMQALQTVCLRGTKVHKKCYLASEGLKHYHEANEDCISKGGTLVVPRNSDEINALRDYGKRSLPGVNDFWLGINDMVTEGKFLDVHGFAVSFLNWDRAQPSGGKRENCVLFSQSAQGKWSDEACRSSKRYICEFIIPTRTRPLEQKLISEEDLAANDILDYKDDDDKV
Given back: 2.63

Asked: Request the reported glycan array binding signal (z-score) associated with SynCAM (Mus musculus) (protein) MASAVLPSGSQCAAAAAVAAAAAPPGLRLRLLLLLLSAAALIPTGDGQNLFTKDVTVIEGEVATISCQVNKSDDSVIQLLNPNRQTIYFRDFRPLKDSRFQLLNFSSSELKVSLTNVSISDEGRYFCQLYTDPPQESYTTITVLVPPRNLMIDIQKDTAVEGEEIEVNCTAMASKPATTIRWFKGNKELKGKSEVEEWSDMYTVTSQLMLKVHKEDDGVPVICQVEHPAVTGNLQTQRYLEVQYKPQVHIQMTYPLQGLTREGDAFELTCEAIGKPQPVMVTWVRVDDEMPQHAVLSGPNLFINNLNKTDNGTYRCEASNIVGKAHSDYMLYVYDPPTTIPPP
Given back: 2.96

Asked: Request the reported glycan array binding signal (z-score) associated with CFEM-PPm (Pichia pastoris), F2QPV1 (protein) AVATPPACLLACAAEVVKESSDCDALNNIQCICENEGSAIHACLESTCPDGLSSTALQSFEDVCE
Given back: 1.53

Asked: Request the reported glycan array binding signal (z-score) associated with LFA (Limax flavus) (protein) MSVLFLAASFLLLASFELVAAQGCPRQDPGDWIVIQRRLNADVNFYRGWADYKHGFGDLRCNFWLGNEKIHQLTSHGRYKLRVEFTFNNKSYFAEYSTFKILGEADKYKLQVGGYSGNAGDALTFHNGMAFSTNDRDNDADSIDCAKVYHGAWWYKTCHESNLNGKWGSKKYGEGLNWKAKTTFTATATSSLLKIKALK
Given back: 2.97
